# study.target: HDAC6 (Homo sapiens)
# Sequence (Q9UBN7 whole entry, canonical isoform): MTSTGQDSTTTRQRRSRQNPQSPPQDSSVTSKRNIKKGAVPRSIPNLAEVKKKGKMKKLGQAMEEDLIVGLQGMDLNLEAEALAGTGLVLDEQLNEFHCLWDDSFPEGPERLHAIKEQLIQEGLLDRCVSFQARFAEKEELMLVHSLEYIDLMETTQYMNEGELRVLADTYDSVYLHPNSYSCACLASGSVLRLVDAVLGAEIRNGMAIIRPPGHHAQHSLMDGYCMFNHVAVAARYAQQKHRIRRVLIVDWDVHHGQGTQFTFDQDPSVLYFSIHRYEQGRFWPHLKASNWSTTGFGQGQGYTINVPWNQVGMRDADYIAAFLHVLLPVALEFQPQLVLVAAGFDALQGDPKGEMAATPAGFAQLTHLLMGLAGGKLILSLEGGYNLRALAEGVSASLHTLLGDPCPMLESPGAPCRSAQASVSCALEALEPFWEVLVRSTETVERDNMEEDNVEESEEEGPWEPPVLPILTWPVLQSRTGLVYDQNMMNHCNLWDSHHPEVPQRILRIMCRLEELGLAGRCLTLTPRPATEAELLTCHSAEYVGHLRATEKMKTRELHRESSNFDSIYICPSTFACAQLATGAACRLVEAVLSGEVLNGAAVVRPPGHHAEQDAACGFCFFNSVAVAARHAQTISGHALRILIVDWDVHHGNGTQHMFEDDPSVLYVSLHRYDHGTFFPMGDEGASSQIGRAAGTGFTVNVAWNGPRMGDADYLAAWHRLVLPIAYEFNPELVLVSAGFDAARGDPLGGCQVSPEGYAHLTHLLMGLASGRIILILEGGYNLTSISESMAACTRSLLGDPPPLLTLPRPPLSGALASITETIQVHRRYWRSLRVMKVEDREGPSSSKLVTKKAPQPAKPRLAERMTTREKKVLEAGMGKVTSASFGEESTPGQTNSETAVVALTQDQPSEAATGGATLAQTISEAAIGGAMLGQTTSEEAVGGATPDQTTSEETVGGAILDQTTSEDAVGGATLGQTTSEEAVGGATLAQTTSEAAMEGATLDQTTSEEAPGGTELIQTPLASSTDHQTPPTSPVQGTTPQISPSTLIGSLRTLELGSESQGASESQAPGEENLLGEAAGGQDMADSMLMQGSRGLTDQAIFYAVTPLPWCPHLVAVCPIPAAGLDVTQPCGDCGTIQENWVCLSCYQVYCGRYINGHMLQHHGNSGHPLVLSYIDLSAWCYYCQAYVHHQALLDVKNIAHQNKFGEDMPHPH
# protocol.description: HDAC isoform inhibition assay (Reaction Biology)
# assay.conditions: read-out: HDAC6 IC50 as given in the text; rounded values of the running text
assay.readout: pIC50
Quick note: pIC50 values are minus log10 of concentrations in mol/L.

Ask: Entry O=C(NO)c1ccc(CN2CCC(S(=O)(=O)N[C@@H]3C[C@H]3c3ccccc3)CC2)cc1 has what pIC50?
Result: 8.05

---

# study.target: UniProt:Q9UBN7
# protocol.description: HDAC isoform inhibition assay (Reaction Biology)
# assay.conditions: read-out: IC50 HDAC6; 10-dose IC50 mode, threefold serial dilution starting at 10 μM
IC50 values for the molecules below.
Lab book: enter the figure in nM, no units written.

Ask: Value wanted: IC50 (UniProt:Q9UBN7) of entry O=C(CCCCCCC(=O)Nc1ccc(CN[C@@H]2C[C@H]2c2ccccc2)cc1)NO
Result: 3730

Ask: Next record, please: O=C(NO)c1ccc(CN2CCC(S(=O)(=O)N[C@@H]3C[C@H]3c3ccccc3)CC2)cc1
Result: 9.32

Ask: Would you kindly repeat that for O=C(/C=C/c1ccc(S(=O)(=O)N[C@@H]2C[C@H]2c2ccccc2)cc1)NO ?
Result: 9.66

Ask: Queued: O=C(/C=C/c1cccc(S(=O)(=O)N[C@@H]2C[C@H]2c2ccccc2)c1)NO
Result: 11.8

Reference source: paper PMC11472331
